- Tested on: Streptococcus pyogenes
- TEST PROTOCOL: In vitro antibacterial activity of 930 strain of Gram positive bacteria Streptococcus pyogenes
- Format: functional
REPORTED ENDPOINT: MIC (µg/mL)

[[record]]
line_notation = "CC[C@H]1OC(=O)/C(C)=C/[C@H](C)[C@@H](O[C@@H]2O[C@H](C)C[C@H](N(C)C)[C@H]2O)[C@@](C)(OC)C[C@@H](C)C(=O)[C@H](C)[C@H]2N(NCCCc3ccccc3[N+](=O)[O-])C(=O)O[C@]12C"
prefix_operator = "="
reading = 64

[[record]]
line_notation = "CC[C@H]1OC(=O)/C(C)=C/[C@H](C)[C@@H](O[C@@H]2O[C@H](C)C[C@H](N(C)C)[C@H]2O)[C@@](C)(OC)C[C@@H](C)C(=O)[C@H](C)[C@H]2N(N)C(=O)O[C@]12C"
prefix_operator = ">"
reading = 64

[[record]]
line_notation = "CC[C@H]1OC(=O)/C(C)=C/[C@H](C)[C@@H](O[C@@H]2O[C@H](C)C[C@H](N(C)C)[C@H]2O)[C@@](C)(OC)C[C@@H](C)C(=O)[C@H](C)[C@H]2N(NCCCc3ccc(F)cc3)C(=O)O[C@]12C"
prefix_operator = "="
reading = 64

[[record]]
line_notation = "CC[C@H]1OC(=O)/C(C)=C/[C@H](C)[C@@H](O[C@@H]2O[C@H](C)C[C@H](N(C)C)[C@H]2O)[C@@](C)(OC)C[C@@H](C)C(=O)[C@H](C)[C@H]2N(NCCCc3cccc([N+](=O)[O-])c3)C(=O)O[C@]12C"
prefix_operator = "="
reading = 64


* * *

Entries and their MIC values follow.
- System: Streptococcus pneumoniae
- TEST PROTOCOL: In vitro antibacterial activity of 5649 strain of Gram positive bacteria Streptococcus pneumoniae
- Format: functional
REPORTED ENDPOINT: MIC (µg/mL)

[[record]]
line_notation = "CC[C@H]1OC(=O)/C(C)=C/[C@H](C)[C@@H](O[C@@H]2O[C@H](C)C[C@H](N(C)C)[C@H]2O)[C@@](C)(OC)C[C@@H](C)C(=O)[C@H](C)[C@H]2N(NCc3c(O)ccc4ccccc34)C(=O)O[C@]12C"
unit_tag = "µg/mL"
reading = 0.25

[[record]]
line_notation = "CC[C@H]1OC(=O)/C(C)=C/[C@H](C)[C@@H](O[C@@H]2O[C@H](C)C[C@H](N(C)C)[C@H]2O)[C@@](C)(OC)C[C@@H](C)C(=O)[C@H](C)[C@H]2N(NCc3ccccc3O)C(=O)O[C@]12C"
unit_tag = "µg/mL"
reading = 2


* * *

- System: Streptococcus pyogenes
- TEST PROTOCOL: In vitro antibacterial activity of 930 strain of Gram positive bacteria Streptococcus pyogenes
- Type: functional
REPORTED ENDPOINT: MIC (µg/mL)

[[record]]
line_notation = "CC[C@H]1OC(=O)/C(C)=C/[C@H](C)[C@@H](O[C@@H]2O[C@H](C)C[C@H](N(C)C)[C@H]2O)[C@@](C)(OC)C[C@@H](C)C(=O)[C@@H](C)[C@H]2N(N)C(=O)O[C@]12C"
tested_on = "Streptococcus pyogenes"
prefix_operator = ">"
reading = 128

[[record]]
line_notation = "CC[C@H]1OC(=O)/C(C)=C/[C@H](C)[C@@H](O[C@@H]2O[C@H](C)C[C@H](N(C)C)[C@H]2O)[C@@](C)(OC)C[C@@H](C)C(=O)[C@H](C)[C@H]2N(NCCCc3cccc(O)c3)C(=O)O[C@]12C"
tested_on = "Streptococcus pyogenes"
prefix_operator = "="
reading = 128

[[record]]
line_notation = "CC[C@H]1OC(=O)/C(C)=C/[C@H](C)[C@@H](O[C@@H]2O[C@H](C)C[C@H](N(C)C)[C@H]2O)[C@@](C)(OC)C[C@@H](C)C(=O)[C@H](C)[C@H]2N(NCc3cc([N+](=O)[O-])ccc3O)C(=O)O[C@]12C"
tested_on = "Streptococcus pyogenes"
prefix_operator = ">"
reading = 128

[[record]]
line_notation = "CC[C@H]1OC(=O)/C(C)=C/[C@H](C)[C@@H](O[C@@H]2O[C@H](C)C[C@H](N(C)C)[C@H]2O)[C@@](C)(OC)C[C@@H](C)C(=O)[C@H](C)[C@H]2N(NCc3ccncc3)C(=O)O[C@]12C"
tested_on = "Streptococcus pyogenes"
prefix_operator = ">"
reading = 128

[[record]]
line_notation = "CC[C@H]1OC(=O)/C(C)=C/[C@H](C)[C@@H](O[C@@H]2O[C@H](C)C[C@H](N(C)C)[C@H]2O)[C@@](C)(OC)C[C@@H](C)C(=O)[C@H](C)[C@H]2N(NCCCn3nc4ccccc4n3)C(=O)O[C@]12C"
tested_on = "Streptococcus pyogenes"
prefix_operator = "="
reading = 128

